Test system: NCI-H1944
assay summary: relative viability (nuclei count vs DMSO), 5 days (fraction); higher = more cells survive
reported conditions: first compound 0.8 µM
// returns F unless relative viability is strictly below 0.3, in which case T

Sample answers from the record:
Asked: Does the reported relative viability of the following compound sit strictly below 0.3? O=c1[nH]c2ccccc2n1C1CCN(CCCC(c2ccc(F)cc2)c2ccc(F)cc2)CC1 [Pimozide] + CC1(C)CCC(c2ccc(Cl)cc2)=C(CN2CCN(c3ccc(C(=O)NS(=O)(=O)c4ccc(N[C@H](CCN5CCOCC5)CSc5ccccc5)c(S(=O)(=O)C(F)(F)F)c4)cc3)CC2)C1 [Navitoclax] (partner 0.5 µM)
Given back: F

Asked: Report whether reported relative viability is lower than 0.3 (strictly) for Cc1cnc(-c2cnc(NCCNc3ccc(C#N)cn3)nc2-c2ccc(Cl)cc2Cl)[nH]1 + Nc1nc2[nH]cc(CCc3ccc(C(=O)N[C@@H](CCC(=O)O)C(=O)O)cc3)c2c(=O)[nH]1 [Pemetrexed] (partner 0.2 µM)
Given back: F

Asked: Say whether its relative viability is strictly beneath 0.3. Entry: O=c1[nH]c2ccccc2n1C1CCN(CCCC(c2ccc(F)cc2)c2ccc(F)cc2)CC1 [Pimozide] + CS(=O)(=O)N1CCN(Cc2cc3nc(-c4cccc5[nH]ncc45)nc(N4CCOCC4)c3s2)CC1 [Pictilisib] (partner 1 µM)
Given back: F

---
Asked: Would you kindly verify if relative viability of Cc1cnc(-c2cnc(NCCNc3ccc(C#N)cn3)nc2-c2ccc(Cl)cc2Cl)[nH]1 + CS(=O)(=O)N1CCN(Cc2cc3nc(-c4cccc5[nH]ncc45)nc(N4CCOCC4)c3s2)CC1 [Pictilisib] (partner 1 µM) is strictly less than 0.3?
Given back: F

Asked: Hello, is relative viability of the following compound strictly smaller than 0.3? Cc1cnc(-c2cnc(NCCNc3ccc(C#N)cn3)nc2-c2ccc(Cl)cc2Cl)[nH]1 + Cc1nc(Nc2ncc(C(=O)Nc3c(C)cccc3Cl)s2)cc(N2CCN(CCO)CC2)n1 [Dasatinib] (partner 0.075 µM)
Given back: T

Asked: Record Cc1cnc(-c2cnc(NCCNc3ccc(C#N)cn3)nc2-c2ccc(Cl)cc2Cl)[nH]1 + C[C@]1(O)C[C@@H](c2nc(-c3ccc4ccc(-c5ccccc5)nc4c3)c3c(N)nccn32)C1 [Linsitinib] (partner 1 µM) : is its relative viability strictly below 0.3?
Given back: F
